# Test system: EJ-1
# Protocol details: Proliferation panel assay, EJ-1
# Assay type: cell-based
# Settings: EJ1, 120 h; Bladder, EJ-1, 5 days; read-out: Cellular Proliferation EC50
# Method: The impact of compounds of the Examples on cancer cell proliferation was determined using the breast cancer cell line MX-1 (ATCC) in a 3-day proliferation assay. […] Luminescence readings from the Cell Titer Glo assay were normalized to the DMSO treated cells and analyzed using the GraphPad Prism software with sigmoidal curve fitting to obtain EC50s. The minimum significant ratio (MSR) was determined to evaluate assay reproducibility (Eastwood et al., (2006) J Biomol Screen, 11: 253-261). […]
Property name: EC50 (nM)
Enter your answer as a number in nM; do not include the unit.

Record `Cc1[nH]c(-c2cc(NS(C)(=O)=O)ccc2Oc2ccccc2)c2c1C(=O)CCC2` , field EC50: 594

###

# Study target: BRD4 (BDII_E352-M457) (Homo sapiens (Human))
# Protocol details: TR-FRET bromodomain binding assay, BRD4 second bromodomain
# Settings: His-tagged BD2, 30 nM Alexa647 probe
pKi: −log10 of the molar value.
# binarize pKi: threshold 6 inclusive, high side t, low side f

Examples from the recorded data:
Compound	Discrete label
Cc1[nH]c(-c2ccccc2Oc2ccccc2)c2c1C(=O)CC(C(C)C)C2 (centres unmarked) [Example 70]	f
Cc1[nH]c(-c2ccccc2OCc2cccc3cccnc23)c2c1C(=O)CCC2 [Example 35]	f
Cc1[nH]c(-c2ccccc2)c2c1C(=O)CCC2 [Example 1]	f

Evaluate Cc1[nH]c(-c2ccccc2OCC2CCOC2)c2c1C(=O)CCC2 (centres unmarked) [Example 29] : pKi at minimum 6?
f

Evaluate Cc1[nH]c(-c2cc(NS(C)(=O)=O)ccc2Oc2ccccc2)c2c1C(=O)CCC2 [Example 40] : pKi at minimum 6?
t

###

# System: H1299
# Protocol details: Proliferation panel assay, H1299
# Assay type: cell-based
# Settings: Homo sapiens, NCI-H1299, 120 h; NSCLC, H1299, 5 days; read-out: Cellular Proliferation EC50
# Description: The impact of compounds of the Examples on cancer cell proliferation was determined using the breast cancer cell line MX-1 (ATCC) in a 3-day proliferation assay. […] Luminescence readings from the Cell Titer Glo assay were normalized to the DMSO treated cells and analyzed using the GraphPad Prism software with sigmoidal curve fitting to obtain EC50s. The minimum significant ratio (MSR) was determined to evaluate assay reproducibility (Eastwood et al., (2006) J Biomol Screen, 11: 253-261). […]
Property name: EC50

Entry `Cc1[nH]c(-c2cc(NS(C)(=O)=O)ccc2Oc2ccccc2)c2c1C(=O)CCC2` , H1299 data, EC50 value: 360 nM

###

# Study target: BRD4 (BDII_E352-M457) (Homo sapiens (Human))
# Protocol details: TR-FRET bromodomain binding assay, BRD4 second bromodomain
# Settings: His-tagged BD2, 30 nM Alexa647 probe
Property name: pKi
# pKi = -log10(concentration in molar units)

Some entries whose results are on file:
Compound	Study target	pKi
Cc1[nH]c(-c2cc(C(=O)NCC3CCCO3)ccc2Oc2ccccc2)c2c1C(=O)CCC2 (stereo not drawn) [Example 56]	BRD4 (BDII_E352-M457) (Homo sapiens (Human))	6.19
Cc1[nH]c(-c2cc(N)ccc2Sc2ccccc2)c2c1C(=O)CCC2 [Example 43]	BRD4 (BDII_E352-M457) (Homo sapiens (Human))	6.25
COC(=O)c1ccc(Oc2ccccc2)c(-c2[nH]c(C)c3c2CCCC3=O)c1 [Example 53]	BRD4 (BDII_E352-M457) (Homo sapiens (Human))	5.44
Cc1[nH]c(-c2ccccc2OCc2ccccc2)c2c1C(=O)CC(C)(C)C2 [Example 62]	BRD4 (BDII_E352-M457) (Homo sapiens (Human))	5.76

With those in mind, consider the next compound.
Record Cc1[nH]c(-c2ccccc2COc2ccccc2)c2c1C(=O)CCC2 [Example 24] , field pKi: 5.64

Data credit: patent US9776990B2
